# System: HEK-293T
# test.method.notes: Multiplex assay against HEK293T
# Assay type: toxicity, cell-based
# study.conditions: human, 24 h, 1 µM, compound concentration 1 uM, replicate 1
observation.type: Total Cell Count
Lab note: jot down the number only; don't add units.

[[record]]
compound = "CCC(=O)O[C@]1(C(=O)SCF)[C@H](C)C[C@H]2[C@@H]3C[C@H](F)C4=CC(=O)C=C[C@]4(C)[C@@]3(F)[C@@H](O)C[C@@]21C [FLUTICASONE PROPIONATE]"
assay_result = 273

[[record]]
compound = "N#Cc1cnc(Nc2cc(NC[C@H]3CNCCO3)c(C(F)(F)F)cn2)cn1 [SRA-737]"
assay_result = 740

[[record]]
compound = "O=C(O)c1ccc2cc(-c3ccc(O)c(C45CC6CC(CC(C6)C4)C5)c3)ccc2c1 [O-DEMETHYLATED ADAPALENE]"
assay_result = 354

[[record]]
compound = "CCOc1cc(N2CCC(O)CC2)ccc1Nc1ncc2c(n1)N(C1CCCC1)CCC(=O)N2C"
assay_result = 619

[[record]]
compound = "CNC(=O)c1cc(Oc2ccc(NC(=O)Nc3cc(C(C)(C)C)nn3-c3ccc4ncccc4c3)c(F)c2)ccn1 [REBASTINIB]"
assay_result = 727


Dear colleague, I am looking for the recorded Total Cell Count of the following compound: CC(C)(C)c1cnc(CSc2cnc(NC(=O)C3CCNCC3)s2)o1 [BMS-387032]
451

Look at this compound and give its reported Total Cell Count. "CC(=O)c1cc(-c2cc(C(=O)NC3CC3)ccc2C)c2ncccn12"
305

Consider the compound shown here: "COc1cc2c(Nc3ccc(NC(=O)c4ccccc4)cc3)ncnc2cc1OCCCN1CCOCC1" What is its recorded Total Cell Count?
523

###

# System: U2OS
# test.method.notes: Multiplex assay against U2OS
# Type: toxicity, cell-based
# study.conditions: human, 24 h, 10 µM, compound concentration 10 uM, replicate 2
observation.type: Total Cell Count
The reply should be a number, written without any unit.

[[record]]
molecule = "CNC(=O)c1cc(Oc2ccc(NC(=O)Nc3cc(C(C)(C)C)nn3-c3ccc4ncccc4c3)c(F)c2)ccn1 [REBASTINIB]"
system_tested = "U2OS"
assay_result = 141

[[record]]
molecule = "CC(C)N1CCC(C)(C)c2cc(C#Cc3ccc(C(=O)O)cc3)ccc21"
system_tested = "U2OS"
assay_result = 352

[[record]]
molecule = "Nc1ccc(C(=O)Nc2cccc(-c3nc(N4CCOCC4)c4oc5ncccc5c4n3)c2)cn1"
system_tested = "U2OS"
assay_result = 80


Next:
Consider the molecule shown here: CCOc1cc2ncc(C#N)c(Nc3ccc(OCc4cccc(F)c4)c(Cl)c3)c2cc1NC(=O)/C=C/CN(C)C [HKI-357] What is its recorded Total Cell Count?
141

###

# System: U2OS
# test.method.notes: Multiplex assay against U2OS
# Type: toxicity, cell-based
# study.conditions: human, 48 h, 1 µM, compound concentration 1 uM, replicate 1
Reported Total Cell Count by item:
// print number alone

[[record]]
compound = "CCc1cc2c(cc1CC)CC(NC[C@H](O)c1ccc(O)c3[nH]c(=O)ccc13)C2"
assay_result = 181

[[record]]
compound = "Nc1nc2c(c(N3CCNCC3)n1)CCC1=C2[C@@H]2CCCC[C@@H]2O1"
assay_result = 299

[[record]]
compound = "Cc1nc(Cc2cccc(C(F)(F)F)c2)sc1-c1ccc(C(N)=O)nc1 [TP-024n]"
assay_result = 160

[[record]]
compound = "CNc1oc(-c2cccc3ccccc23)nc1C#N"
assay_result = 243


Give its Total Cell Count value. Item: "CC(C)N1CCC(C)(C)c2cc(C#Cc3ccc(C(=O)O)cc3)ccc21"
245

Which Total Cell Count value is on record for "Cl.Cl.Nc1ncnc2c1c(-c1cccc(OCc3ccccc3)c1)cn2[C@H]1C[C@@H](CN2CCC2)C1" ?
182

What value of measured Total Cell Count is listed for CCn1c(-c2nonc2N)nc2cnc(Oc3cccc(NC(=O)c4ccc(OCCN5CCOCC5)cc4)c3)cc21 [GSK-269962A] ?
230

For the compound shown here, "Nc1ccc(C(=O)Nc2cccc(-c3nc(N4CCOCC4)c4oc5ncccc5c4n3)c2)cn1" , give the reported Total Cell Count.
240

So what's the measured Total Cell Count for this one? "O=C(O)c1ccc2cc(-c3ccc(O)c(C45CC6CC(CC(C6)C4)C5)c3)ccc2c1"
117
